This collection of values is drawn from patent US12116358B2.

# IC50 per entry
Target: SETD2(1434-1711) (Homo sapiens)
Construct: SETD2 (1434-1711) Assay; catalogue N/A
Sequence (Q9BYW2 1434-1711): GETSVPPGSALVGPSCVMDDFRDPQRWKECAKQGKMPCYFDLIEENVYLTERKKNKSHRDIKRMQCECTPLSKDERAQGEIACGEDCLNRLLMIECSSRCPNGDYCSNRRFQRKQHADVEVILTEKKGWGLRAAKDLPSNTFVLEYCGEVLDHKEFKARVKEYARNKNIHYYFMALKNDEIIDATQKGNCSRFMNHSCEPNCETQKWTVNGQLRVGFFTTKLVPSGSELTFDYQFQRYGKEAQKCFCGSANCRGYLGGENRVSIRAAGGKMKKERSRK
Assay: SETD2 (1434-1711) assay
Format: biochemical
Details: read-out: SETD2 (1434-1711)
measured.quantity: IC50

>  <compound>
Cc1cccc2cc(C(=O)N[C@H]3CC[C@H](C(F)(F)F)CC3)[nH]c12

>  <target.under.test>
SETD2(1434-1711) (Homo sapiens)

>  <observed.value>
> 200 µM

$$$$
>  <compound>
COC(=O)CC(NC(=O)c1cc2cccc(C)c2[nH]1)c1ccc(F)cc1 (stereo not shown)

>  <target.under.test>
SETD2(1434-1711) (Homo sapiens)

>  <observed.value>
> 200 µM

$$$$
>  <compound>
CC(=O)N1CCN(C2COCC(NC(=O)c3cc4c(F)ccc(C)c4[nH]3)C2)CC1 (stereo not shown) [compound 987]

>  <target.under.test>
SETD2(1434-1711) (Homo sapiens)

>  <observed.value>
> 10 µM

$$$$
>  <compound>
Cc1cccc2cc(C(=O)NCCc3ccc(Cl)cc3N3CCOCC3)[nH]c12

>  <target.under.test>
SETD2(1434-1711) (Homo sapiens)

>  <observed.value>
> 25 µM

$$$$

* * *

Target: SETD2(1434-1711) (Homo sapiens, UniProt Q9BYW2)
Construct: SETD2 (1434-1711) Assay; catalogue N/A
Assay: SETD2 (1434-1711) assay
Assay type: biochemical
Conditions: read-out: SETD2 (1434-1711)
measured.quantity: IC50 (nM)

>  <compound>
COC(=O)CC(NC(=O)c1cc2cccc(C)c2[nH]1)c1ccccc1Br (stereo not drawn) [compound 774]

>  <measured.quantity>
IC50

>  <prefix.operator>
>

>  <observed.value>
200000

$$$$
>  <compound>
Cc1cccc2cc(C(=O)NC3CCN(Cc4ccccc4)CC3)[nH]c12 [compound 752]

>  <measured.quantity>
IC50

>  <prefix.operator>
>

>  <observed.value>
200000

$$$$
>  <compound>
CC(=O)N1CCN(C[C@@H]2CCC[C@H](NC(=O)c3cc4c(F)ccc(C)c4[nH]3)C2)CC1 [compound 1077]

>  <measured.quantity>
IC50

>  <prefix.operator>
>

>  <observed.value>
10000

$$$$
>  <compound>
CC(=O)N1CCC(c2cccc(NC(=O)c3cc4c(F)ccc(C)c4[nH]3)c2)CC1 [compound 45]

>  <measured.quantity>
IC50

>  <prefix.operator>
=

>  <observed.value>
30

$$$$
>  <compound>
Cc1ccc(F)c2cc(C(=O)Nc3cccc(N4CC5CCC(C4)O5)c3)[nH]c12 [compound 250]

>  <measured.quantity>
IC50

>  <prefix.operator>
=

>  <observed.value>
100

$$$$
>  <compound>
Cc1ccc(F)c2cc(C(=O)Nc3cccc(N4CCCC(N)C4)c3)[nH]c12 (stereo not drawn) [compound 310]

>  <measured.quantity>
IC50

>  <prefix.operator>
=

>  <observed.value>
50

$$$$
>  <compound>
Cc1cccnc1C(Cc1cn(CC2CC2)cn1)NC(=O)c1cc2c(F)ccc(C)c2[nH]1 (stereo not drawn) [compound 356]

>  <measured.quantity>
IC50

>  <prefix.operator>
=

>  <observed.value>
600

$$$$
>  <compound>
Cc1ccc(F)c2cc(C(=O)NC3CCCC(N4CCn5c(nccc5=O)C4)C3)[nH]c12 (stereo not drawn) [compound 1165]

>  <measured.quantity>
IC50

>  <prefix.operator>
=

>  <observed.value>
3500

$$$$
>  <compound>
Cc1cc(CNC(=O)c2cc3cccc(C)c3[nH]2)no1 [compound 719]

>  <measured.quantity>
IC50

>  <prefix.operator>
=

>  <observed.value>
107000

$$$$
>  <compound>
Cc1ccc(F)c2cc(C(=O)Nc3cccc(-c4cn[nH]c4N)c3)[nH]c12 [compound 397]

>  <measured.quantity>
IC50

>  <prefix.operator>
=

>  <observed.value>
500

$$$$
>  <compound>
Cc1ccc(F)c2cc(C(=O)Nc3cc(F)cc(N4CCN(C(=O)N(C)C)CC4)c3)[nH]c12 [compound 25]

>  <measured.quantity>
IC50

>  <prefix.operator>
=

>  <observed.value>
10

$$$$
>  <compound>
Cc1nnc(C2CCCC(NC(=O)c3cc4c(F)ccc(C)c4[nH]3)C2)o1 (stereo not drawn) [compound 976]

>  <measured.quantity>
IC50

>  <prefix.operator>
=

>  <observed.value>
6600

$$$$
>  <compound>
CC(=O)N1CCC12CN(C1CCCC(NC(=O)c3cc4c(F)ccc(C)c4[nH]3)C1)C2 (stereo not drawn) [compound 950]

>  <measured.quantity>
IC50

>  <prefix.operator>
=

>  <observed.value>
400

$$$$
>  <compound>
CC(=O)N1CCN(C2CCC(NC(=O)c3cc4c(F)ccc(C)c4[nH]3)CC2)CC1 (stereo not drawn) [compound 383]

>  <measured.quantity>
IC50

>  <prefix.operator>
>

>  <observed.value>
10000

$$$$
>  <compound>
Cc1cccc2cc(C(=O)N3CCCC3C(N)=O)[nH]c12 (stereo not drawn) [compound 786]

>  <measured.quantity>
IC50

>  <prefix.operator>
>

>  <observed.value>
200000

$$$$
>  <compound>
CC(=O)N1CCN([C@@H]2CCC[C@@H](NC(=O)c3cc4c(F)ccc(C)c4[nH]3)C2)C[C@H]1C(F)(F)F [compound 1072]

>  <measured.quantity>
IC50

>  <prefix.operator>
=

>  <observed.value>
2300

$$$$
>  <compound>
Cc1cccc2cc(C(=O)Nc3cnc4nccn4c3)[nH]c12 [compound 484]

>  <measured.quantity>
IC50

>  <prefix.operator>
=

>  <observed.value>
7600

$$$$
>  <compound>
Cc1ccc(F)c2cc(C(=O)Nc3cccc(N4CCC(NCCN)CC4)c3)[nH]c12 [compound 413]

>  <measured.quantity>
IC50

>  <prefix.operator>
=

>  <observed.value>
30

$$$$
>  <compound>
Cc1ccc(F)c2cc(C(=O)Nc3cccc(N4CCC(O)CC4)c3)[nH]c12 [compound 126]

>  <measured.quantity>
IC50

>  <prefix.operator>
=

>  <observed.value>
50

$$$$
>  <compound>
Cc1ccc(F)c2cc(C(=O)Nc3cccc4ncccc34)[nH]c12 [compound 238]

>  <measured.quantity>
IC50

>  <prefix.operator>
=

>  <observed.value>
200

$$$$
>  <compound>
Cc1ccc(F)c2cc(C(=O)Nc3cccc(N4CCC5(CCNC5)CC4)c3)[nH]c12 [compound 241]

>  <measured.quantity>
IC50

>  <prefix.operator>
=

>  <observed.value>
10

$$$$
